Procedure Summary: gradient 5% acetonitrile 3 min, to 50% in 2 min, to 85% in 15 min, held 3 min, 100 µL/min
Measurement Parameters: column: Zorbax Extend-C18 2.1 x 50 mm; eluents: water / acetonitrile, 0.1% formic acid
Listed below: RP-LC retention time values for each entry.
The reply should be a number in s, with the unit left off.

Observe how each entry below is paired with its result.
CC1(C(=O)NC2CCCCCC2)CN(S(C)(=O)=O)CC(=O)N1Cc1ccc(Cl)cc1 (configuration not stated) | 946
CCc1ccc(CNC(=O)c2cc3n(n2)CC(C)(C(=O)NCc2ccc(F)cc2)N(C)C3=O)cc1 (configuration not stated) | 858
Cc1ccc(C)c(S(=O)(=O)N2CCC(c3noc(-c4ccccc4C)n3)CC2)c1 | 1270

Reported RP-LC retention time, molecule `CCc1ccccc1NC(=O)N1CCC(n2cnc3ccccc3c2=O)CC1` : ____
744

Now consider `O=C1C(=O)N(Cc2ccc(C(=O)N3CCOCC3)cc2)CCN1Cc1ccc(F)cc1` .
652

Now consider Cn1nc(C(F)(F)F)cc1C(=O)N1CCCC1c1ccccc1Cl (configuration not stated) .
1030

Now consider O=C(NCCCn1cccn1)C1CCc2nc(N3CCCC3)ncc2C1 (configuration not stated) .
575

====

Procedure Summary: gradient 5% acetonitrile 3 min, to 50% in 2 min, to 85% in 15 min, held 3 min, 100 µL/min
Measurement Parameters: column: Zorbax Extend-C18 2.1 x 50 mm; eluents: water / acetonitrile, 0.1% formic acid
Recorded Endpoint: RP-LC retention time (s)
The reply should be a number in s, with the unit left off.

Observe how each entry below is paired with its result.
CCC1(CC=C2CCCCC2)C(=O)NC(=O)NC1=O | 863
CN1CCCCCCN(C(=O)Nc2ccc3c(c2)OCCO3)CCC1=O | 745
Cc1ccccc1CNC(=O)c1cc2n(n1)CC(C)(C(=O)NC1CCCC1)N(C)C2=O (centres undefined) | 767
COC(=O)c1c(NCCN2CCCc3ccccc32)c2cc(F)ccc2[nH]c1=O | 952
Cc1ccc2[nH]cc(CCNC(=O)CN3C(=O)CSc4cccn4-c4ccccc43)c2c1 | 954
COc1ccc(C(=O)N2[C@H]3CC[C@@H]2c2cnc(-c4ccc(F)cc4)nc2C3)cn1 | 892
CCCN1CCCCc2cc(C(=O)NC)sc21 | 861
CC(C)(C)c1csc(-c2csc(S(=O)(=O)NCCN3CCc4ccccc4C3)c2)n1 | 846
CCc1noc(NC(C)=O)c1-c1ccc(C)c(S(=O)(=O)NCc2ccc(F)cc2)c1 | 814
Cc1nc(-c2csc(S(=O)(=O)N3CCC(C(=O)N4CC=C(c5ccccc5)CC4)CC3)c2)no1 | 1000

Reported RP-LC retention time, compound CN1c2cc(C(=O)N3CCN(c4ccccn4)CC3)ccc2C(=O)N2CCCCC21 (centres undefined) : ____
588

Now consider CN1C(=O)CCC2(CNC(=O)Nc3ccc4c(c3)OCCO4)CCCC=C12 (centres undefined) .
722

Now consider COc1ccc(C(=O)N2CCCCC2c2nncn2C)cn1 (centres undefined) .
603

Now consider `CN1CCn2cc(S(=O)(=O)Nc3ccc(F)cc3)cc2C1=O` .
678

Now consider CCC(C)NC(=O)c1cnn(-c2ccc(-c3nc(C4CC4)no3)cn2)c1C (centres undefined) .
899

Now consider `Cc1ccc2[nH]cc(CCNC(=O)c3cc(-c4ccccn4)nc4ccccc34)c2c1` .
902

Now consider COc1ccc(CN2C(=O)C3(CCOCC3)CC2c2nnnn2C(C)(C)C)c(OC)c1 (centres undefined) .
734

====

Procedure Summary: gradient 5% acetonitrile 3 min, to 50% in 2 min, to 85% in 15 min, held 3 min, 100 µL/min
Measurement Parameters: column: Zorbax Extend-C18 2.1 x 50 mm; eluents: water / acetonitrile, 0.1% formic acid
Recorded Endpoint: RP-LC retention time (s)
The reply should be a number in s, with the unit left off.

CCOC(=O)C1CCN(C(=O)CN2CCN(Cc3ccc(C)cc3)C(=O)C2=O)CC1 | 710
O=C(NC1CCc2ccccc21)c1nnn(-c2ccc(F)cc2)c1-c1ccncc1 (centres undefined) | 799
CCCc1c(C(=O)O)nnn1-c1cc(C)ccc1F | 787
Cc1nc(N2CCC(C(=O)Nc3ccc(F)cc3F)CC2)c2c(C)c(C)oc2n1 | 874

Reported RP-LC retention time, compound `CCCn1c(-c2cccc(C(=O)NCc3ccco3)c2)nc2cccnc21` : ____
742

Now consider `COc1ccc(-c2nc(CSc3nc4ccccc4n4c(C)nnc34)c(C)o2)cc1` .
854

Now consider `Cc1nnc([C@@H]2CC(F)(F)CN2C(=O)Cc2c[nH]c3ccccc23)o1` .
723

Now consider Cc1cc2c(cc1S(=O)(=O)N1CCCC1C(=O)Nc1cccc(C)c1C)OCC(=O)N2 (centres undefined) .
789

Now consider `O=C(Nc1ccc([N+](=O)[O-])cc1O)Nc1ccccc1Br` .
914

Now consider `C=CCNc1nc(-c2ccc([N+](=O)[O-])cc2)nc2ccccc12` .
786

Now consider CC(=O)C1CC[C@H]2[C@@H]3CC[C@@H]4CC(=O)CC[C@]4(C)[C@H]3CC[C@]12C (some centres undefined) .
1050

Now consider `Cn1c(=O)n(CC(=O)O)c(=O)c2c1nc1n2CCCN1c1ccc(Cl)cc1` .
749

Now consider CCOc1ccc(C(=O)NC2CCN(c3cc(-c4ccc(OC)cc4)[nH]n3)C2)cc1 (centres undefined) .
725

Now consider CCn1cnnc1CC1CCN(S(=O)(=O)Cc2ccccc2F)C1 (centres undefined) .
658

====

Procedure Summary: gradient 5% acetonitrile 3 min, to 50% in 2 min, to 85% in 15 min, held 3 min, 100 µL/min
Measurement Parameters: column: Zorbax Extend-C18 2.1 x 50 mm; eluents: water / acetonitrile, 0.1% formic acid
Rule: RP-LC retention time below 700 s gives true, anything at or above gives false.

Solved entries:
O=C(Cn1c(C(=O)NCc2ccc(F)cc2F)cccc1=O)NC1CCCC1 | false
CCOc1cccc2c1OC1(CCN(C(C)=O)CC1)N1N=C(c3ccc4c(c3)OCO4)CC21 (stereo not given) | false
CN(C(=O)Cn1nc(Cc2ccncc2)c2ccccc2c1=O)c1ccccc1Cl | true
CC(=O)N1CCCN(C2=NS(=O)(=O)C(c3ccccc3)=C2C)CC1 | true
CCn1c(=O)cc(OCC(=O)NCCN(C)Cc2ccccc2)c2ccccc21 | true

Record `O=C(NCC1CCOCC1)Nc1c(F)cccc1F` : is its RP-LC retention time strictly below 700 s?
true

Now consider `COc1ccc(-c2csc3c(=O)n(CC(=O)NCc4ccco4)cnc23)cc1` .
false

Now consider COCCN1C(=O)c2ccccc2C(C(=O)Nc2cccnc2)C1c1cccs1 (stereo not given) .
true

Now consider `Cc1ccc(Cn2cc(-c3noc(-c4cccc(N(C)C)c4)n3)nn2)cc1` .
false

Now consider COc1ccc(-c2noc(C3CC(=O)N(c4cccc(Cl)c4)C3)n2)c(OC)c1 (stereo not given) .
false

Now consider `COc1ccc(-c2noc(NCCc3ccc(OC)c(OC)c3)n2)cc1` .
false

Now consider COc1cccc(CNC(=O)C2CCCN(c3nc4ccccc4nc3OC)C2)c1 (stereo not given) .
false

Now consider `O=C(c1cnc2n(c1=O)CCS2)N1CCN(c2ccc([N+](=O)[O-])cc2)CC1` .
true

Now consider `COc1ccc(-c2noc(CSc3nccn3-c3ccc(C)cc3)n2)cc1` .
false

Now consider `CCOc1ccc(CNS(=O)(=O)c2cc(C(=O)N3CCCC3)n(C)c2C)cc1` .
false

Now consider `Cc1cc2nn(CC(=O)Nc3ccc(C)c(C)c3)c(=O)n2c(-c2ccccc2)n1` .
false

Now consider `O=C(CN1C(=O)c2ccccc2C1=O)NCCS(=O)(=O)N1CCc2ccccc2C1` .
false

Now consider `CN1c2ccccc2C(=O)NC12CCN(C(=O)NCc1ccc(F)cc1)CC2` .
false

====

Procedure Summary: gradient 5% acetonitrile 3 min, to 50% in 2 min, to 85% in 15 min, held 3 min, 100 µL/min
Measurement Parameters: column: Zorbax Extend-C18 2.1 x 50 mm; eluents: water / acetonitrile, 0.1% formic acid
Recorded Endpoint: RP-LC retention time

Observe how each entry below is paired with its result.
COc1ccc2c(c1)C1(CCN(C(=O)C(C)C)C1)C(=O)N2C (stereo not given) | 701 s
O=C(Cc1cccs1)Nc1cccc2ccc(-n3ccnc3)nc12 | 610 s
COc1ccccc1-c1noc(C2CCCN2C(=O)c2cnccn2)n1 (stereo not given) | 720 s
Cc1ccc(-c2nccn3cc(C(=O)NC4CC4)nc23)cc1 | 803 s
COc1ccc(-c2nc3cc(C)ccn3c2NC(=O)COc2ccc(Cl)cc2Cl)cc1 | 780 s
CCOC(=O)NCC1CCN(S(C)(=O)=O)CC1 | 603 s
O=C(Cc1csc(NC(=O)c2ncccn2)n1)Nc1nc2ccccc2s1 | 670 s
O=C(Cc1nnc(-c2ccc3ncccc3c2)o1)NCc1ccc(F)cc1Cl | 752 s

Reported RP-LC retention time, molecule `COc1ccc(NC(=O)c2cccn2-c2cccnc2)cc1OC` : ____
678 s

Now consider `COc1ccc2sc(NCc3cccnc3)nc2c1` .
556 s

Now consider `CN(Cc1nc2ccccc2n1CC(=O)N1CCOCC1)C(=O)c1ccco1` .
587 s

These data points were gathered from the METLIN SMRT retention time set (Domingo-Almenara et al. 2019).
